# experimentDescription: Half life in Sprague-Dawley rat at 3 mg/kg, po by LC-MS/MS analysis
# Assay type: ADME, organism-based
# particulars: in vivo
Assignment: determine reported half-life for the given compounds.
Give bare numbers, in h.

// known answers, use as guide
# smilesRecord, half-life (h)
rows = [
    ("CNC(=O)Nc1ccc2c(c1)CC[C@]21NC(=O)N(CC(=O)N2Cc3cc(F)ccc3OC[C@H]2C2CC2)C1=O", 0.99),
    ("CNC(=O)Nc1ccc2c(c1)CC[C@@]21OC(=O)N(CC(=O)N2Cc3cc(F)ccc3OC[C@H]2C(F)(F)F)C1=O", 1.43),
    ("CNC(=O)Nc1ccc2c(c1)CC[C@]21NC(=O)N(CC(=O)N2Cc3cc(F)ccc3OC[C@H]2C(F)(F)F)C1=O", 4.45),
]

// batch mode: one half-life value per listed entry
1. Cn1cc(-c2ccc3c(c2)CC[C@@]32OC(=O)N(CC(=O)N3Cc4cc(F)ccc4OC[C@H]3C3CC3)C2=O)cn1
2. CNC(=O)Nc1ccc2c(c1)CC[C@@]21OC(=O)N(CC(=O)N2Cc3ccccc3CC[C@H]2C2CC2)C1=O

Response:
1. 1.21
2. 1.67

For every listed record, write down its half-life.
1. Cn1cc(-c2ccc3c(c2)CC[C@]32NC(=O)N(CC(=O)N3Cc4cc(F)ccc4OC[C@H]3C(F)(F)F)C2=O)cn1
2. Cn1cc(-c2ccc3c(c2)CC[C@]32NC(=O)N(CC(=O)N3Cc4cc(F)ccc4OC[C@H]3C3CC3)C2=O)cn1
3. CNC(=O)Nc1ccc2c(c1)CC[C@@]21OC(=O)N(CC(=O)N2Cc3ccccc3CC[C@H]2C(F)(F)F)C1=O
4. Cn1cc(-c2ccc3c(c2)CC[C@@]32OC(=O)N(CC(=O)N3Cc4cc(F)ccc4OC[C@H]3C(F)(F)F)C2=O)cn1

Response:
[1.02, 0.99, 1.81, 1.45]

----------
# experimentDescription: AUClast in Sprague-Dawley rat at 1 mg/kg, iv by LC-MS/MS analysis
# Type: ADME, organism-based
# Design: dose 1 mg/kg, route intravenous, time 0 - last
# particulars: in vivo
reportedProperty: AUC(0-t) (µM·h)
One number for each entry, in µM·h.

For orientation, consider the following solved cases.
# smilesRecord, experimentalResult
rows = [
    ("CNC(=O)Nc1ccc2c(c1)CC[C@@]21OC(=O)N(CC(=O)N2Cc3ccccc3CC[C@H]2C2CC2)C1=O", 1.18),
    ("Cn1cc(-c2ccc3c(c2)CC[C@]32NC(=O)N(CC(=O)N3Cc4cc(F)ccc4OC[C@H]3C(F)(F)F)C2=O)cn1", 2.22),
]

Parameters: items (list). Returns: AUC(0-t) for each item.
1. Cn1cc(-c2ccc3c(c2)CC[C@]32NC(=O)N(CC(=O)N3Cc4cc(F)ccc4OC[C@H]3C3CC3)C2=O)cn1
2. CNC(=O)Nc1ccc2c(c1)CC[C@@]21OC(=O)N(CC(=O)N2Cc3ccccc3CC[C@H]2C(F)(F)F)C1=O
3. Cn1cc(-c2ccc3c(c2)CC[C@@]32OC(=O)N(CC(=O)N3Cc4cc(F)ccc4OC[C@H]3C(F)(F)F)C2=O)cn1

Response:
1.53
0.89
0.97

----------
# experimentDescription: Clearance in Sprague-Dawley rat at 1 mg/kg, iv by LC-MS/MS analysis
# Type: ADME, organism-based
# particulars: in vivo
reportedProperty: clearance (mL/min/kg)
Numbers only, in mL/min/kg.

# smilesRecord, clearance / mL/min/kg
data = [
    ("Cn1cc(-c2ccc3c(c2)CC[C@]32NC(=O)N(CC(=O)N3Cc4cc(F)ccc4OC[C@H]3C3CC3)C2=O)cn1", 20.7),
]

List clearance for every entry below, keeping the order given.
1. Cn1cc(-c2ccc3c(c2)CC[C@]32NC(=O)N(CC(=O)N3Cc4cc(F)ccc4OC[C@H]3C(F)(F)F)C2=O)cn1
2. CNC(=O)Nc1ccc2c(c1)CC[C@@]21OC(=O)N(CC(=O)N2Cc3ccccc3CC[C@H]2C2CC2)C1=O

Response:
13.4
27.9

// for each compound below, give its clearance
1. Cn1cc(-c2ccc3c(c2)CC[C@@]32OC(=O)N(CC(=O)N3Cc4cc(F)ccc4OC[C@H]3C(F)(F)F)C2=O)cn1
2. CNC(=O)Nc1ccc2c(c1)CC[C@@]21OC(=O)N(CC(=O)N2Cc3ccccc3CC[C@H]2C(F)(F)F)C1=O

Response:
29.8
35.1

----------
# Tested on: MV4-11
# experimentDescription: Antiproliferative activity against human MV4-11 cells measured after 3 days by celltiter-glo luminescence assay
# Format: functional, cell-based
# particulars: MV4-11, 72 h
reportedProperty: pIC50
Give bare numbers, as −log10 of the molar value.

// worked examples, pIC50 included
# smilesRecord, targetOrSystem, experimentalResult
measured = [
    ("CNC(=O)Nc1ccc2c(c1)CC[C@]21NC(=O)N(CC(=O)N2Cc3cc(F)ccc3OC[C@H]2C(F)(F)F)C1=O", "MV4-11", 7.80),
    ("CNC(=O)Nc1ccc2c(c1)CC[C@@]21OC(=O)N(CC(=O)N2Cc3ccccc3CC[C@H]2C)C1=O", "MV4-11", 7.19),
    ("CNC(=O)Nc1ccc2c(c1)CC[C@@]21OC(=O)N(CC(=O)N2Cc3ccccc3CC[C@H]2C(F)(F)F)C1=O", "MV4-11", 8.09),
    ("Cn1cc(-c2ccc3c(n2)CC[C@]32NC(=O)N(CC(=O)N3Cc4cc(F)ccc4OC[C@H]3C(F)(F)F)C2=O)cn1", "MV4-11", 6.69),
    ("CNC(=O)Nc1ccc2c(c1)CC[C@@]21OC(=O)N(CC(=O)N(Cc2ccc(F)cc2)[C@@H](C)C(F)(F)F)C1=O", "MV4-11", 6.59),
]

For the 5 compounds below, give their pIC50 values.
1. Cn1cc(-c2ccc3c(c2)CC[C@@]32OC(=O)N(CC(=O)N3Cc4cc(F)ccc4OC[C@H]3C3CC3)C2=O)cn1
2. Cn1cc(-c2ccc3c(c2)CC[C@@]32OC(=O)N(CC(=O)N3Cc4cc(F)ccc4OC[C@H]3C(F)(F)F)C2=O)cn1
3. CNC(=O)Nc1ccc2c(c1)CC[C@]21OC(=O)N(CC(=O)N2Cc3ccccc3CC[C@H]2C)C1=O
4. Cn1cc(-c2cnc3c(c2)CC[C@]32NC(=O)N(CC(=O)N3Cc4cc(F)ccc4OC[C@H]3C(F)(F)F)C2=O)cn1
5. CNC(=O)Nc1ccc2c(c1)CC[C@@]21OC(=O)N(CC(=O)N2Cc3ccccc3CC[C@H]2C2CC2)C1=O

Response:
8.43
7.87
6.81
6.93
8.06

----------
# experimentDescription: Half life in Sprague-Dawley rat at 1 mg/kg, iv by LC-MS/MS analysis
# Assay type: ADME, organism-based
# particulars: in vivo
Provide the reported half-life of each item.
Give bare numbers, in min.

Sample records with half-life:
# smilesRecord, half-life (min)
rows = [
    ("Cn1cc(-c2ccc3c(c2)CC[C@]32NC(=O)N(CC(=O)N3Cc4cc(F)ccc4OC[C@H]3C3CC3)C2=O)cn1", 41.4),
    ("CNC(=O)Nc1ccc2c(c1)CC[C@@]21OC(=O)N(CC(=O)N2Cc3ccccc3CC[C@H]2C(F)(F)F)C1=O", 40.2),
    ("Cn1cc(-c2ccc3c(c2)CC[C@@]32OC(=O)N(CC(=O)N3Cc4cc(F)ccc4OC[C@H]3C(F)(F)F)C2=O)cn1", 126),
    ("Cn1cc(-c2ccc3c(c2)CC[C@]32NC(=O)N(CC(=O)N3Cc4cc(F)ccc4OC[C@H]3C(F)(F)F)C2=O)cn1", 90),
]

API: the following record is the query input.
The recorded half-life for "CNC(=O)Nc1ccc2c(c1)CC[C@@]21OC(=O)N(CC(=O)N2Cc3ccccc3CC[C@H]2C2CC2)C1=O" is 37.2

----------
# experimentDescription: Volume of distribution at steady state in Sprague-Dawley rat at 1 mg/kg, iv by LC-MS/MS analysis
# Assay type: ADME, organism-based
# particulars: in vivo, read-out: Vdss
reportedProperty: Vd (L/kg)
Give bare numbers, in L/kg.

# smilesRecord, Vd [L/kg]
rows = [
    ("CNC(=O)Nc1ccc2c(c1)CC[C@@]21OC(=O)N(CC(=O)N2Cc3ccccc3CC[C@H]2C2CC2)C1=O", 0.88),
]

Hi team, please reply with Vd for each item in this list.
1. CNC(=O)Nc1ccc2c(c1)CC[C@@]21OC(=O)N(CC(=O)N2Cc3ccccc3CC[C@H]2C(F)(F)F)C1=O
2. Cn1cc(-c2ccc3c(c2)CC[C@]32NC(=O)N(CC(=O)N3Cc4cc(F)ccc4OC[C@H]3C(F)(F)F)C2=O)cn1
3. Cn1cc(-c2ccc3c(c2)CC[C@@]32OC(=O)N(CC(=O)N3Cc4cc(F)ccc4OC[C@H]3C(F)(F)F)C2=O)cn1
4. Cn1cc(-c2ccc3c(c2)CC[C@]32NC(=O)N(CC(=O)N3Cc4cc(F)ccc4OC[C@H]3C3CC3)C2=O)cn1

Response:
1.34
1.5
4
1

Origin of measurements: ChEMBL document CHEMBL4321876
